# System: C. albicans
# Type: cell-based, Candida albicans
Ends that are not written are not given here.
In this section, each of the sequences is paired with its reported MIC.
Respond numerically; units are µg/mL and should not be typed.

>  <sequenceRecord>
FIHHIIGGLFSAGKARHRLIRRRRR [I16R]

>  <u>
µg/mL

>  <MIC>
128

$$$$
>  <sequenceRecord>
FIAAIIGGLFSAGKAIHRLIRRRRR [H3A/H4A]

>  <u>
µg/mL

>  <MIC>
512

$$$$
>  <sequenceRecord>
FIHHIIGGLFSAGKAIHRLIRRRRR [TP4]

>  <u>
µg/mL

>  <MIC>
128

$$$$

Q: Identify the reported MIC for the following entry. HHIIGGLFSAGKAIHRLIRRRRR [dN2]
Result: 128

Q: Identify the reported MIC for the following entry. FIHHIIGGLFSVGKHIHSLIHRRRR [VHSH]
Result: 128
